# Tested on: SNB-75
# protocol_text: NCI tumour cell line growth inhibition, 48 h
Activity calls are given as the source filed them. Rule as the data show it: active = GI50 up to about 1.1 µM and inactive = higher.
measurement_type: GI50

- CC(C)(C)C(=O)Nc1cccc2oc(-c3ccccc3)cc12: 85.1 µM (inactive)
- COC(=O)c1cc(-c2ccc3ccccc3c2)nc(O)c1C#N: > 100 µM (inactive)
- O=C(Nc1ccccc1)OCc1nc2c([nH]1)C(=O)C=CC2=O: 19.3 µM (inactive)

====

Known GI50 of a selection of molecules
# System: OVCAR-5
# protocol_text: NCI tumour cell line growth inhibition, 48 h
The source made the active and inactive calls. Rule as the data show it: active = GI50 up to about 1.1 µM and inactive = higher.
measurement_type: GI50

• CC(C)CNC(=O)c1c(NC(=O)c2ccccc2)sc2[nH]c(=O)n(-c3ccccc3)c(=O)c12 = > 100 µM (inactive)
• O=c1[nH]c(=O)n(C2CC(O)C(CO)O2)cc1C#Cc1cc(C(F)(F)F)cc(C(F)(F)F)c1 (centres undefined) = > 100 µM (inactive)
• COc1ccc(/C=C(\C(=O)OCC(C)C)c2ccc(OC)c(OC)c2)cc1OC = > 100 µM (inactive)
• Cc1ccc(NC(=S)N/N=C2\C(=O)Nc3ccccc32)cc1 = > 100 µM (inactive)
• O=C(Nc1ccccc1)OCc1nc2c([nH]1)C(=O)C=CC2=O = 22.2 µM (inactive)
• CO[C@]12S[C@@H]3CCCC[C@@]31C(C)(C)C(=O)N2c1ccccc1 = > 100 µM (inactive)
• Clc1ccc(C2c3ccccc3-c3nc4ccccc4n32)cc1 (centres undefined) = 25.4 µM (inactive)
• CCc1c(Cc2cccc3ccccc23)n2c(nc1=O)SCC2OCCO (centres undefined) = > 100 µM (inactive)
• CCN(CC)CCC(=O)c1ccc(Oc2ccc(C)cc2)cc1 = 19.5 µM (inactive)
• O=C(Nc1ccccc1)c1cc2c(cc1Cl)Sc1nccn1S2(=O)=O = 27.2 µM (inactive)
• Cc1c(/N=N/c2ccccc2)c(-c2ccccc2)n(C2OC(CO)C(O)C(O)C2O)c(=S)c1C#N (centres undefined) = 13.8 µM (inactive)
• N#CC(C#N)=C(C(C#N)C#N)C(C#N)C#N = > 100 µM (inactive)
• COc1cccc(N2C(=O)/C(=C/c3ccc(N(CCC#N)CCC#N)cc3)N=C2c2cc([N+](=O)[O-])ccc2Cl)c1 = 18.5 µM (inactive)
• Cc1cc(=O)oc2cc(OCc3nc4ccccc4c(=O)[nH]3)ccc12 = > 100 µM (inactive)
• C=C(c1ccccc1)C1ON(C)CCc2cc(OC)c(OC)cc21 (centres undefined) = > 100 µM (inactive)
• Cc1cc(C)cc(-n2c3nc(=O)n(C)c(=O)c-3nc3ccccc32)c1 = 39.5 µM (inactive)
• C/C(=N\NC(N)=S)c1nc2cccnc2[nH]1 = 47.1 µM (inactive)
• Cc1ccc2nc(NC(=O)C(=O)C3C(=O)NC(=S)NC3=O)sc2c1 = > 100 µM (inactive)
• COC(=O)/C(=N\NC(=O)c1ccccc1O)C(C#N)c1ccc(Cl)cc1 (centres undefined) = 34.9 µM (inactive)
• CC(=O)OCC1OC(n2c(-c3ccc(C)cc3)cc(-c3ccccc3)c(C#N)c2=S)C(OC(C)=O)C(OC(C)=O)C1OC(C)=O (centres undefined) = > 100 µM (inactive)
• COc1cc2c(c(OC(C)=O)c1OC(C)=O)-c1ccc(SC)c(=O)cc1C(NC(C)=O)CC2 (centres undefined) = > 50.1 µM (inactive)
• COc1ccc2c(c1)nc1n2C(N)=Nc2ccccc2S1 = 36.6 µM (inactive)
• Cc1c(C(=O)C/C(=N/NC(=O)C[N+](C)(C)C)C(=O)Nc2ccc(Cl)cc2)[n+]([O-])c2ccccc2[n+]1[O-] = > 100 µM (inactive)
• COC(=O)[C@@H]1CN(C(=O)Cc2ccccc2)C(=O)N1 = > 100 µM (inactive)
• O=c1cc(-c2nc3ccccc3[nH]2)[nH]c2nc(-c3nc4ccccc4[nH]3)cc(-c3ccc(Cl)cc3)c12 = 29 µM (inactive)
• Clc1cc2nn(C3CCCCO3)nc2cc1Cl (centres undefined) = > 100 µM (inactive)
• CC12CC(C#N)(C#N)C(C#N)(CO1)C(=N)O2 (centres undefined) = > 100 µM (inactive)
• CC12O[C@]3([C@H](C(=O)N4CCOC43C)[C@H]1Cl)[C@H]1O[C@H]12 (some centres undefined) = > 100 µM (inactive)
• Cc1cn(C(CO)OC(CO)CN(O)C2C3CC4CC(C3)CC2C4)c(=O)[nH]c1=O (centres undefined) = > 100 µM (inactive)
